- EXPERIMENTAL_TARGET: Growth hormone secretagogue receptor type 1 (Homo sapiens)
- PROTOCOL_TEXT: Receptor Binding Studies
- TEST_CONDITIONS: pH 7.3; 25 °C
Here, each record is paired with measured Kb data.
Answer with a number only, understood to be in nM.

These recorded examples may help you get a feel for the data.
- COc1ccc(Cn2c(CCc3c[nH]c4ccccc34)nnc2[C@@H](Cc2c[nH]c3ccccc23)NC(=O)[C@@H]2CCCN2)cc1: 6
- COc1ccc(Cn2c(CCc3ccccc3)nnc2[C@@H](Cc2c[nH]c3ccccc23)NC(=O)[C@@H]2CCCN2)c(OC)c1: 32

Please find the next molecule below.
## Task In one line, give reported Kb of the entry COc1ccc(Cn2c(CCc3c[nH]c4ccccc34)nnc2[C@@H](Cc2c[nH]c3ccccc23)NC(=O)C(C)(C)N)cc1 .
## Result 4

* * *

- EXPERIMENTAL_TARGET: Growth hormone secretagogue receptor type 1 (Homo sapiens, UniProt Q92847)
- Sequence (Q92847 whole entry): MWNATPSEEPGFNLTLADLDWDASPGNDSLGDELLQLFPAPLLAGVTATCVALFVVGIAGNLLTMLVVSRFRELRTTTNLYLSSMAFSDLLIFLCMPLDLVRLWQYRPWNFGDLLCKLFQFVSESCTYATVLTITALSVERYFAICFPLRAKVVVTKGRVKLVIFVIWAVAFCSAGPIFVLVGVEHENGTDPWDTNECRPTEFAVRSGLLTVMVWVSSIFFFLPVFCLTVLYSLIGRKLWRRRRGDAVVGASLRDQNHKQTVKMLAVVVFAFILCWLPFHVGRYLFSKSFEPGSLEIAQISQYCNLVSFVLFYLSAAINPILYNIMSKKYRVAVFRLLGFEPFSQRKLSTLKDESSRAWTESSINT
- PROTOCOL_TEXT: Receptor Binding Studies
- TEST_CONDITIONS: pH 7.3; 25 °C
Hi! Just check whether IC50 is below 100 nM. Below gives label 1, equal or above gives label 0.

Before answering, review these 2 worked examples.
• O=C(N[C@H](Cc1c[nH]c2ccccc12)c1nnc(CCc2ccccc2)n1-c1ccccc1)[C@@H]1CCCN1 = label 0
• COc1ccc(Cn2c(CCc3ccccc3)nnc2[C@@H](Cc2c[nH]c3ccccc23)NC(=O)[C@H]2CCCN2)cc1 = label 1

## Task Quick check: does COc1ccc(Cn2c(CCc3ccccc3)nnc2[C@@H](Cc2c[nH]c3ccccc23)NC(=O)[C@H](C)N)cc1 have IC50 under 100 nM?
## Result label 0

## Task Quick check: does CCc1ccc(Cn2c(CCc3ccccc3)nnc2[C@@H](Cc2c[nH]c3ccccc23)NC(=O)[C@@H]2CCCN2)cc1 have IC50 under 100 nM?
## Result label 0

## Task Quick check: does O=C(N[C@H](Cc1c[nH]c2ccccc12)c1nnc(CCc2ccccc2)n1Cc1ccccn1)C1CCCNC1 (some centres not stated) have IC50 under 100 nM?
## Result label 0

## Task Quick check: does COc1ccc(Cn2c(CCc3ccccc3)nnc2[C@@H](Cc2c[nH]c3ccccc23)NC(=O)[C@@H]2CCCN2)cc1 have IC50 under 100 nM?
## Result label 1

## Task Quick check: does CCc1ccc(Cn2c(CCc3ccccc3)nnc2[C@@H](Cc2c[nH]c3ccccc23)NC(=O)[C@H](C)N)cc1 have IC50 under 100 nM?
## Result label 0

* * *

- EXPERIMENTAL_TARGET: Growth hormone secretagogue receptor type 1 (Homo sapiens)
- PROTOCOL_TEXT: Receptor Binding Studies
Here, each record is paired with measured Kb data.

These recorded examples may help you get a feel for the data.
* COc1ccc(Cn2c(CCc3c[nH]c4ccccc34)nnc2[C@@H](Cc2c[nH]c3ccccc23)NC(=O)[C@H]2CCCCN2)cc1 | 8 nM
* COc1ccc(Cn2c(CCc3c[nH]c4ccccc34)nnc2[C@@H](Cc2c[nH]c3ccccc23)NC(=O)C2CNCCN2)c(OC)c1 (mixture of isomers) | 5 nM
* COc1ccc(Cn2c(CCc3ccccc3)nnc2[C@@H](Cc2c[nH]c3ccccc23)NC(=O)C2CCOCC2)cc1 | 51 nM

Please find the next molecule below.
## Task Report Kb under test system Growth hormone secretagogue receptor type 1 (Homo sapiens) for COc1ccc(Cn2c(CCc3c[nH]c4ccccc34)nnc2[C@@H](Cc2c[nH]c3ccccc23)NC(=O)C2CCCCN2)c(OC)c1 (some centres undefined) .
## Result 18 nM
